# ASSAY REMARKS: In vivo rat pharmacokinetics experiments
# APPLIED CONDITIONS: non-compartmental analysis
T ½ by entry:
Field: numeric (h). Do not append units.

// solved cases for T ½ follow
>>> measured_result("CC1(C)CCC(c2cc(C(C)(C)C)c3oc(C(=O)N4CCN(C(=O)CCC(C)(C)C(=O)O)CC4(C)C)cc3n2)CC1")
0.57
>>> measured_result("CC(C)[C@H](CC(=O)N1CCN(C(=O)c2cc3nc(-c4ccc(Cl)c(F)c4)cc(C(C)(C)C)c3o2)C(C)(C)C1)C(=O)O")
0.33

Short answer for `CC(C)(C)c1cc(-c2ccc(Cl)c(F)c2)nc2cc(C(=O)N3CCN(c4ccc(C(=O)O)cn4)CC3(C)C)oc12` : T ½ was 3.7

Short answer for `CC1(C)CCC(c2cc(C(C)(C)C)c3oc(C(=O)N4CCN(c5cccc(C(=O)O)n5)CC4(C)C)cc3n2)CC1` : T ½ was 5.3

Short answer for `Cc1nc(N2CCN(C(=O)c3cc4nc(-c5ccc(Cl)c(F)c5)cc(C(C)(C)C)c4o3)C(C)(C)C2)ccc1C(=O)O` : T ½ was 2.0

Short answer for `Cc1ccc(C(=O)O)c(N2CCN(C(=O)c3cc4nc(-c5ccc(Cl)c(F)c5)cc(C(C)(C)C)c4o3)C(C)(C)C2)n1` : T ½ was 5.6
